Cited source: ChEMBL document CHEMBL5236656

- system.name: Alpha-synuclein (Homo sapiens) (UniProt P37840)
- method.description: Inhibition of alpha-Synuclein (unknown origin) aggregation assessed as aggregation by measuring ThT fluorescence at 100 uM incubated for 5 days by ThT fluorescence assay (reference value: 100%)
- Set-up: scale not given: the % may be the effect or the level left
- conditions.used: time 5.0 day
endpoint.label: Activity (%)

I = C[C@@H]1Cc2cc(O)c(O)cc2-c2cc(O)c(O)cc2C[C@@H]1C
II = CC(C)(c1ccc(O)c(O)c1)C(C)(C)c1ccc(O)c(O)c1
I'm curious whether I or II has the smaller Activity number. Which is it? Label of pick, please. I

P = CC1(C)c2cc(O)c(O)cc2-c2c(ccc(O)c2O)C1(C)C
Q = CC1(C)c2cc(O)c(O)cc2-c2cc(O)c(O)cc2C1(C)C
Could you please tell me which of these two has the higher Activity: P or Q ? # respond with the chosen item's label Q
(Q: 56.1%, P: 36.1%)

I = Oc1cc2ccc3cc(O)c(O)cc3c2cc1O
II = Oc1cc2c(cc1O)-c1cc(O)c(O)cc1CC2
# returns the entry with the larger Activity; inputs I and II Bench note: the answer is the label of the chosen record. I
(I: 33.6%, II: 22.2%)

P = CC1c2cc(O)c(O)cc2-c2c(ccc(O)c2O)C1C (stereo unspecified)
Q = CC(c1ccc(O)c(O)c1)C(C)c1ccc(O)c(O)c1 (mixture of isomers)
Hi, I'm comparing two records. Which one has the lower Activity, P or Q ? The response must carry the label of the picked entry. Q
